What pIC50 was measured for each of the following?
# Measured on: human TRPM8 (Homo sapiens)
# Sequence (Q7Z2W7 whole entry): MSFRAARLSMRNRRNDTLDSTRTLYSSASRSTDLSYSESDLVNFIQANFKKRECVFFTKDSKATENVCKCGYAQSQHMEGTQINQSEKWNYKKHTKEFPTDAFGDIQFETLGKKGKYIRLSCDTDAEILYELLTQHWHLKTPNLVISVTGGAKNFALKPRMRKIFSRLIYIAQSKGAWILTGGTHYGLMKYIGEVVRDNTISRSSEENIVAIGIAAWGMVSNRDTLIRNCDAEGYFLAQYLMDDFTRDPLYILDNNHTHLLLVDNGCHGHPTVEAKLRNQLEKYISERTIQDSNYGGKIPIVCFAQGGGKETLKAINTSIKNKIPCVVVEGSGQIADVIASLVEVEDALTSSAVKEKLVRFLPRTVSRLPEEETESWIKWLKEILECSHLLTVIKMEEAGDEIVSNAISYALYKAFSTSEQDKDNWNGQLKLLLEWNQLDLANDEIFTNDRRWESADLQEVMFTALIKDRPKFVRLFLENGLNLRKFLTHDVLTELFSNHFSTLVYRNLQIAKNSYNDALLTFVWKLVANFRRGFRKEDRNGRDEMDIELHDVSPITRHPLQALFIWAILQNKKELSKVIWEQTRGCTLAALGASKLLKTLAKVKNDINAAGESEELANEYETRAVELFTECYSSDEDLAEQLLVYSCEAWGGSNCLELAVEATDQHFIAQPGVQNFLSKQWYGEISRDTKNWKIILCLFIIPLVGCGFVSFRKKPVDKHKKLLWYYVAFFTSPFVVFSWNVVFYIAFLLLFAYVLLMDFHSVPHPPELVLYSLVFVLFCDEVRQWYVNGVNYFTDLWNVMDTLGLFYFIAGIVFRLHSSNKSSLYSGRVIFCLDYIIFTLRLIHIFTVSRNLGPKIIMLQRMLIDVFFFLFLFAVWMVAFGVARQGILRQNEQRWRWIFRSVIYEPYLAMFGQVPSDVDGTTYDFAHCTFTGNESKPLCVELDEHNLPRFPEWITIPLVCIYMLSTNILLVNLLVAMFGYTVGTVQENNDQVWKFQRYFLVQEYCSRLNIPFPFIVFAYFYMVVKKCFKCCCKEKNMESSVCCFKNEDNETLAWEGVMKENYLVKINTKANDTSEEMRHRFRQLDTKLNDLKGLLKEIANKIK
# Method description: Menthol-induced Ca2+ influx in HEK293 cells stably expressing human TRPM8
# Stated conditions: 30 microM menthol-induced Ca2+ influx, read-out: IC50 against TRPM8
pIC50: −log10 of the molar value.

q: GET /values?readout=pIC50&system=human TRPM8 (Homo sapiens)&item= COc1cc(C(=O)CN2C(=O)NC3(CCC(F)(F)CC3)C2=O)ccc1-c1cccnc1
a: > 7.00

q: GET /values?readout=pIC50&system=human TRPM8 (Homo sapiens)&item= Cc1cc(C(=O)CN2C(=O)NC3(CCC(F)(F)CC3)C2=O)sc1-c1cccc(C(N)=O)c1
a: > 6.30

q: GET /values?readout=pIC50&system=human TRPM8 (Homo sapiens)&item= CCOc1ncccc1-c1ccc(C(=O)CN2C(=O)NC3(CCC(F)(F)CC3)C2=O)cc1
a: > 7.00

q: GET /values?readout=pIC50&system=human TRPM8 (Homo sapiens)&item= O=C(CN1C(=O)NC2(CCC(F)(F)CC2)C1=O)c1ccc(-c2cccc3[nH]ncc23)nc1
a: > 7.00

q: GET /values?readout=pIC50&system=human TRPM8 (Homo sapiens)&item= Cc1nccnc1-c1ccc(C(=O)CN2C(=O)NC3(CCC(F)(F)CC3)C2=O)cc1F
a: > 7.00

q: GET /values?readout=pIC50&system=human TRPM8 (Homo sapiens)&item= O=C(CN1C(=O)NC2(CCC(F)(F)CC2)C1=O)c1ccc(Oc2cccnn2)cc1
a: > 7.00

q: GET /values?readout=pIC50&system=human TRPM8 (Homo sapiens)&item= N#Cc1ncccc1-c1ccc(C(=O)CN2C(=O)NC3(CCCCC3)C2=O)cc1
a: > 7.00

q: GET /values?readout=pIC50&system=human TRPM8 (Homo sapiens)&item= O=C(CN1CC2(CCC(F)(F)CC2)OC1=O)c1ccc(-c2cccnc2CO)cc1
a: > 6.30

q: GET /values?readout=pIC50&system=human TRPM8 (Homo sapiens)&item= O=C1Cc2c(-c3ccc(C(=O)CN4C(=O)NC5(CCC(F)(F)CC5)C4=O)cc3)ccnc2N1
a: > 6.30

q: GET /values?readout=pIC50&system=human TRPM8 (Homo sapiens)&item= O=C(CN1C(=O)NC2(CCC(F)(F)CC2)C1=O)c1ccc(-c2ccc3ccncc3c2)cc1
a: > 6.30

q: GET /values?readout=pIC50&system=human TRPM8 (Homo sapiens)&item= COc1cccc(-c2c(C)cc(C(=O)CN3C(=O)NC4(CCC(F)(F)CC4)C3=O)n2C)c1
a: > 7.00

q: GET /values?readout=pIC50&system=human TRPM8 (Homo sapiens)&item= Cc1cc(C(=O)CN2C(=O)NC3(CCC(F)(F)CC3)C2=O)c(C)n1-c1ccccn1
a: > 7.00

q: GET /values?readout=pIC50&system=human TRPM8 (Homo sapiens)&item= Cc1cc(C(=O)CN2C(=O)NC3(CCC(F)(F)CC3)C2=O)ccc1-c1cccc2ccncc12
a: > 7.00

q: GET /values?readout=pIC50&system=human TRPM8 (Homo sapiens)&item= O=C(CN1C(=O)NC2(CCC(F)(F)CC2)C1=O)c1ccc(-c2cccnc2N2CC(O)C2)cc1
a: > 6.30

q: GET /values?readout=pIC50&system=human TRPM8 (Homo sapiens)&item= N#Cc1cccc(-c2ccc(C(=O)CN3C(=O)NC4(CCCCC4)C3=O)c(F)c2)c1
a: > 7.00

q: GET /values?readout=pIC50&system=human TRPM8 (Homo sapiens)&item= O=C(CN1C(=O)NC2(CCCCC2)C1=O)c1ccc(-c2cccnc2)cc1F
a: > 7.00

q: GET /values?readout=pIC50&system=human TRPM8 (Homo sapiens)&item= O=C(CN1C(=O)NC2(CCC(F)(F)CC2)C1=O)c1ccc(-c2ccnc3c2OCCO3)cc1
a: > 6.30

q: GET /values?readout=pIC50&system=human TRPM8 (Homo sapiens)&item= Cc1cc(C(=O)CN2C(=O)NC3(CCC(F)(F)CC3)C2=O)c(C)n1-c1cccnc1
a: > 7.00

q: GET /values?readout=pIC50&system=human TRPM8 (Homo sapiens)&item= Cc1cc(C(=O)CN2C(=O)NC3(CCC(F)(F)CC3)C2=O)ccc1-c1cccc2c1CNC2=O
a: > 7.00

q: GET /values?readout=pIC50&system=human TRPM8 (Homo sapiens)&item= O=C(CN1C(=O)NC2(CCCCC2)C1=O)c1ccc(OCCNc2ccccc2)nc1
a: > 6.30

q: GET /values?readout=pIC50&system=human TRPM8 (Homo sapiens)&item= Cc1nc(C(=O)CN2C(=O)NC3(CCC(F)(F)CC3)C2=O)sc1-c1cccc(C#N)c1
a: > 7.00
